Assignment: determine reported residual activity for the given molecules.
target: ALK tyrosine kinase receptor (Homo sapiens) (UniProt Q9UM73); settings: at 1 µM
Sequence (Q9UM73 19-1620 limits assumed): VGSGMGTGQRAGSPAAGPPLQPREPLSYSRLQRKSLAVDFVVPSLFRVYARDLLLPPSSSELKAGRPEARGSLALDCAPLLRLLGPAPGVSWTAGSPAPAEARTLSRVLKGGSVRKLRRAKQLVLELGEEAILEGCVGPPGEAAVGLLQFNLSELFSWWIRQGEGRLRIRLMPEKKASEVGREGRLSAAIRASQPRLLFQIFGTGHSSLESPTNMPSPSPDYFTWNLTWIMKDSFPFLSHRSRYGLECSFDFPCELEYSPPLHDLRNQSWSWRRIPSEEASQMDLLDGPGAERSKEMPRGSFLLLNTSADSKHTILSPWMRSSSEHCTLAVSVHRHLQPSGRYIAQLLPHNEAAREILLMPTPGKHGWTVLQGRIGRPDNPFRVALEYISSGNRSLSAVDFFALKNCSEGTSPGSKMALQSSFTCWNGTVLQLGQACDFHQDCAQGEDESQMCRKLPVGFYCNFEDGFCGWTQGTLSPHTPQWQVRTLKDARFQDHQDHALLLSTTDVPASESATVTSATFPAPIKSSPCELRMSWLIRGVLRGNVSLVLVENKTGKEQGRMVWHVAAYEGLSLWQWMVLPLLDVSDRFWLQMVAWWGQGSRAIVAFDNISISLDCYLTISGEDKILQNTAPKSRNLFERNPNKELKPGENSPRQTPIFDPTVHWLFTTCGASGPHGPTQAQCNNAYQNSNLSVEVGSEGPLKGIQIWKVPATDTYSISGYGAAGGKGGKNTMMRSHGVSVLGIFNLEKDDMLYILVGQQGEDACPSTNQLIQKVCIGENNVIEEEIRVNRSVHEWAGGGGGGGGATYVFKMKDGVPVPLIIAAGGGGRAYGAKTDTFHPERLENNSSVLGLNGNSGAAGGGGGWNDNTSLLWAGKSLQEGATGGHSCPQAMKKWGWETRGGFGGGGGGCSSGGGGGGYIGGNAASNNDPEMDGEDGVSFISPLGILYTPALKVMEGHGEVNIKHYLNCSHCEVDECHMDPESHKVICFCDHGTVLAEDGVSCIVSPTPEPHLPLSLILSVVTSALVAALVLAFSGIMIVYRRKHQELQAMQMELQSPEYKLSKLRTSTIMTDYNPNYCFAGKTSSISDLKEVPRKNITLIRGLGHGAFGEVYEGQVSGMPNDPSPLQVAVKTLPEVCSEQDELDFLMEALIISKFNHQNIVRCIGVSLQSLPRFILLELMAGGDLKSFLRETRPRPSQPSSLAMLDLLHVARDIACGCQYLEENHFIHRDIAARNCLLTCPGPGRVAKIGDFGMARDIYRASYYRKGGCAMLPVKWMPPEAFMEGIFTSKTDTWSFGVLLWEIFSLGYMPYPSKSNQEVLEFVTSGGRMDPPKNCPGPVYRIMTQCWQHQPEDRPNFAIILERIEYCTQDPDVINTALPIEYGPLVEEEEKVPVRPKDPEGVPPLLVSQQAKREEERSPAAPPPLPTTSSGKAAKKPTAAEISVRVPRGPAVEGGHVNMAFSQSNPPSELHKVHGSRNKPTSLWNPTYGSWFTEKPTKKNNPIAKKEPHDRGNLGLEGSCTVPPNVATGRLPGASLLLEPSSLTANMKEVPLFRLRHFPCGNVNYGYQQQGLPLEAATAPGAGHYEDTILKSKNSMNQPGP
Numbers only; they are read as %.

Check the records and state residual activity for "Oc1ccc(Nc2nc(-c3ccc(Cl)cc3)cs2)cc1" 82

Give the value of residual activity reported for the following: "Cc1nc(-c2ccccc2)c(-c2ccncc2)o1" 100

Let me know recorded residual activity for "N#C/C(=C(\N)Sc1ccc(N)cc1)c1ccccc1C(F)(F)F" , thanks. 65

Determine its reported residual activity: "Oc1c2ccccc2c2c3c(cccc13)N=N2" 61

Please give the documented residual activity of "COc1ccc(CNc2nc(N(CCO)CCO)nc3c2ncn3C(C)C)cc1" 80

Respond only with residual activity recorded for "O=[N+]([O-])c1ccc(-c2nc(-c3ccc(F)cc3)c(-c3ccncc3)[nH]2)cc1" 83

For the molecule "Cn1cnc2cc3c(Nc4cccc(Br)c4)ncnc3cc21" , give its reported residual activity. 85

Please supply the value of reported residual activity for the item "COc1cc2ncnc(Nc3ccc(Oc4ccccc4)cc3)c2cc1OC" 54

State its residual activity for this molecule: "Cc1ccc(NC2=CC(=O)c3sc(C)nc3C2=O)cc1" 86

Recall and state the measured residual activity for "N#Cc1cnc2cnc(NCc3cccnc3)cc2c1Nc1ccc(F)c(Cl)c1" . 90

Complete the entry with residual activity for "Cc1cc(Nc2nc(-c3ccccc3)nc3ccccc23)n[nH]1" 70

Give the reported residual activity for this molecule. "C[C@@H](N)[C@H]1CC[C@H](C(=O)Nc2ccncc2)CC1" 116

Please report residual activity for the following molecule: "Ic1cccc(CSc2nnc(-c3ccncc3)o2)c1" 73

Supply residual activity value. Item: "CN(C)c1ccc(/C=C2\C(=O)Nc3ccccc32)cc1" 80

Read off the recorded residual activity for "CC(=O)O/N=C1\C(=C2\C(=O)Nc3cc(Br)ccc32)Nc2ccccc21" 58
